Listing: pIC50 of selected molecules
assayed_system: Prostaglandin G/H synthase 2 (Homo sapiens)
Sequence (P35354 whole entry): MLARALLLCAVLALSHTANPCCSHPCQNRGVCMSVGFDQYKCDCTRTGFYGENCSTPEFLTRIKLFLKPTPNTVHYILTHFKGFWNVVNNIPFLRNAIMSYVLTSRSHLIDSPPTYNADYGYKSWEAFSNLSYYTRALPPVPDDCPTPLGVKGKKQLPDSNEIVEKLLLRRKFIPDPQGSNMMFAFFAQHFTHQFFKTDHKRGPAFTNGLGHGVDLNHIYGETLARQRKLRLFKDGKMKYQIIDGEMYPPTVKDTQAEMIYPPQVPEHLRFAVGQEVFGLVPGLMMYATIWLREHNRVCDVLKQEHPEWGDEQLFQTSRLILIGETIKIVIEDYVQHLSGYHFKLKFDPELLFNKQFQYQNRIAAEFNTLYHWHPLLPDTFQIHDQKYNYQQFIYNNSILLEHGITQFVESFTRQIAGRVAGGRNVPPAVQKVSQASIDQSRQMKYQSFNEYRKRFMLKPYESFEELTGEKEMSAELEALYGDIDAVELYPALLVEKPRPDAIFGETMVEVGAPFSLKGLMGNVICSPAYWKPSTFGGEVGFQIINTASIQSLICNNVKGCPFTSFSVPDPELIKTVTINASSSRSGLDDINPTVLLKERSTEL
assay_name: Inhibition of human Prostaglandin G/H synthase 2 in sf-9 cells by spectrophotometric method
Type: cell-based, Sf9
pIC50: −log10 of the molar value.

{"molecule": "C[S+]([O-])c1ccc(C(Nc2cccnc2)C(=O)c2ccc(F)cc2)cc1 (configuration not stated)", "pIC50": 6.30}
{"molecule": "C[S+]([O-])c1ccc(C(Nc2nccs2)C(=O)c2ccc(F)cc2)cc1 (configuration not stated)", "pIC50": 5.68}
